Where do these numbers come from? They come from BigSolDB 2.1.

- condition.context: in toluene, 293.15 K
measured.parameter: solubility (mole fraction)
Just the number, please, no unit attached.

Problem: For CCCSc1nc(N[C@@H]2C[C@H]2c2ccc(F)c(F)c2)c2nnn([C@@H]3C[C@H](OCCO)[C@@H](O)[C@H]3O)c2n1 , what is its reported solubility (mole fraction)?
Result: 8e-05

###

- condition.context: in 2-butanone, 303.15 K
measured.parameter: solubility (mole fraction)
Answer with a number only.

Problem: Any idea what solubility (mole fraction) was measured for CCCSc1nc(N[C@@H]2C[C@H]2c2ccc(F)c(F)c2)c2nnn([C@@H]3C[C@H](OCCO)[C@@H](O)[C@H]3O)c2n1 ?
Result: 0.0584

###

- condition.context: in n-octanol, 298.15 K
measured.parameter: solubility (mole fraction)
Lab note: jot down the number only; don't add units.

Problem: Item CCCSc1nc(N[C@@H]2C[C@H]2c2ccc(F)c(F)c2)c2nnn([C@@H]3C[C@H](OCCO)[C@@H](O)[C@H]3O)c2n1 has what recorded solubility (mole fraction)?
Result: 0.00367

###

- condition.context: in isobutanol, 278.15 K
measured.parameter: solubility (mole fraction)
Reply with just the number.

Problem: Tell me the measured solubility (mole fraction) of CCCSc1nc(N[C@@H]2C[C@H]2c2ccc(F)c(F)c2)c2nnn([C@@H]3C[C@H](OCCO)[C@@H](O)[C@H]3O)c2n1 , please.
Result: 0.00176

###

- condition.context: in n-octanol, 303.15 K
measured.parameter: solubility (mole fraction)
The response must contain the number and no unit.

Problem: Fill in: solubility (mole fraction) of CCCSc1nc(N[C@@H]2C[C@H]2c2ccc(F)c(F)c2)c2nnn([C@@H]3C[C@H](OCCO)[C@@H](O)[C@H]3O)c2n1 is ___
Result: 0.00406

###

- condition.context: in toluene, 283.15 K
measured.parameter: solubility (mole fraction)
Response field accepts a number only; no unit should be typed.

Problem: Given CCCSc1nc(N[C@@H]2C[C@H]2c2ccc(F)c(F)c2)c2nnn([C@@H]3C[C@H](OCCO)[C@@H](O)[C@H]3O)c2n1 , state its recorded solubility (mole fraction).
Result: 4.9e-05

###

- condition.context: in acetonitrile, 288.15 K
measured.parameter: solubility (mole fraction)

Problem: Could you share which solubility (mole fraction) value was measured for CCCSc1nc(N[C@@H]2C[C@H]2c2ccc(F)c(F)c2)c2nnn([C@@H]3C[C@H](OCCO)[C@@H](O)[C@H]3O)c2n1 ?
Result: 0.00179

###

- condition.context: in cyclohexanone, 303.15 K
measured.parameter: solubility (mole fraction)
Please state the value as a number alone, without comment.

Problem: Which solubility (mole fraction) value is on record for CCCSc1nc(N[C@@H]2C[C@H]2c2ccc(F)c(F)c2)c2nnn([C@@H]3C[C@H](OCCO)[C@@H](O)[C@H]3O)c2n1 ?
Result: 0.0661

###

- condition.context: in isopropanol, 303.15 K
measured.parameter: solubility (mole fraction)

Problem: Report solubility (mole fraction) for CCCSc1nc(N[C@@H]2C[C@H]2c2ccc(F)c(F)c2)c2nnn([C@@H]3C[C@H](OCCO)[C@@H](O)[C@H]3O)c2n1 please.
Result: 0.00496

###

- condition.context: in toluene, 278.15 K
measured.parameter: solubility (mole fraction)
In your answer, state the number alone without any accompanying words.

Problem: Bench note: what solubility (mole fraction) did CCCSc1nc(N[C@@H]2C[C@H]2c2ccc(F)c(F)c2)c2nnn([C@@H]3C[C@H](OCCO)[C@@H](O)[C@H]3O)c2n1 show?
Result: 3.8e-05
